Each recorded value in this set is attributed to ChEMBL document CHEMBL1126861.

Target: Delta-type opioid receptor (Rattus norvegicus)
Sequence (P33533 whole entry): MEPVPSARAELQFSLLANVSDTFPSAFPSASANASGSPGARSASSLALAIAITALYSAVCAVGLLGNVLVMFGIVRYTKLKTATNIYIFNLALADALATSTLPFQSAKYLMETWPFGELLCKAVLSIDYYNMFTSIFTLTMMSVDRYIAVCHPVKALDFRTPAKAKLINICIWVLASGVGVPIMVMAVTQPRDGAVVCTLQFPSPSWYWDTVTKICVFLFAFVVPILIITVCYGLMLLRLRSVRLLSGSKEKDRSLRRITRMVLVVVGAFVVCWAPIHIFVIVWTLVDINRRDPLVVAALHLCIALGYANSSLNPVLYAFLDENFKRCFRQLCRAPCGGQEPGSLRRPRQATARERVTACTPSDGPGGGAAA
Experiment: Tested for binding affinity against delta opioid receptor by displacing [3H]- DSLET radioligand from rat brain membrane preparations
Where a SMILES comes first, the peptide text is derived from it.
Quick reference for pKi among some compounds
Units for pKi: none; it is -log10 of a concentration expressed in mol/L.

Oc1ccc2c3c1O[C@H]1c4[nH]c5ccccc5c4C[C@@]4(O)[C@@H](C2)N(CC2CC2)CC[C@]314 :: 9.74
CC(C)[C@H](NC(=O)[C@H](CC(=O)O)NC(=O)[C@H](Cc1ccccc1)NC(=O)[C@@H](C)NC(=O)[C@@H](N)Cc1ccc(O)cc1)C(=O)N[C@H](C(=O)NCC(N)=O)C(C)C :: 8.19
N[C@@H](Cc1ccc(O)cc1)C(=O)N1Cc2ccccc2C[C@H]1C(=O)N[C@@H](Cc1ccccc1)C(=O)N[C@@H](Cc1ccccc1)C(=O)O (HELM PEPTIDE1{Y.[Tic].F.F}$$$$V2.0) :: 9.51

Here's the next entry for you.
Prompt: Complete the entry with pKi for N[C@@H](Cc1ccc(O)cc1)C(=O)N1Cc2ccccc2C[C@H]1C(=O)N[C@@H](Cc1ccccc1)C(=O)O (HELM PEPTIDE1{Y.[Tic].F}$$$$V2.0)
Completion: 8.71
